# STUDY SYSTEM: Cannabinoid receptor 2 (Homo sapiens)
# Sequence (P34972 whole entry): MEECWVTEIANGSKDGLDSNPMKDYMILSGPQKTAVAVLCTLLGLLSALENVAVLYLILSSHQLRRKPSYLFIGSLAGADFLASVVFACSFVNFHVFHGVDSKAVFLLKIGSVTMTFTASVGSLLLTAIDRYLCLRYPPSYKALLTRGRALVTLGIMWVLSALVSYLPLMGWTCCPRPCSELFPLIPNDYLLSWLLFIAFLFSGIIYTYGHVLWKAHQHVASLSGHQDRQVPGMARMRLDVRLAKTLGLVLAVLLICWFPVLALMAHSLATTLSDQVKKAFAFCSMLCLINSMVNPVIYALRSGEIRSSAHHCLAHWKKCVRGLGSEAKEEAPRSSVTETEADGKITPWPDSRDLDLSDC
Classify: TRUE when Ki is strictly less than 30 nM; FALSE when Ki is not.

Known results for compounds:
> print(dat)
                         chemical.structure  assigned.label
1  CC1(C)Oc2cc(C34CC5CC(CC(CN=C=S)(C5)O3)C4)cc(O)c2[C@@H]2C[C@H](CO)CC[C@H]21            TRUE
2  CC1(C)Oc2cc(C34CC5CC(CC(C(N)=O)(C5)O3)C4)cc(O)c2[C@@H]2C[C@H](O)CC[C@H]21           FALSE
3  CC1(C)Oc2cc(C34CC5CC(CC(C#N)(C5)O3)C4)cc(O)c2[C@@H]2C[C@H](O)CC[C@H]21           FALSE
4  CC1(C)Oc2cc(C34CC5CC(CC(CN=[N+]=[N-])(C5)O3)C4)cc(O)c2[C@@H]2C[C@H](CO)CC[C@H]21            TRUE
5  CC1(C)Oc2cc(C34CC5CC(CC(CN=C=S)(C5)O3)C4)cc(O)c2[C@@H]2C[C@H](O)CC[C@H]21            TRUE

Is Ki strictly under 30 nM for the entry CC1(C)Oc2cc(C34CC5CC(CC(CN=[N+]=[N-])(C5)O3)C4)cc(O)c2[C@@H]2C[C@H](O)CC[C@H]21 ?
TRUE

Ki strictly < 30 nM for this compound? CC1(C)Oc2cc(C34CC5CC(CC(C(N)=O)(C5)O3)C4)cc(O)c2[C@@H]2C[C@H](CO)CC[C@H]21
FALSE

====

The following molecules have recorded Ki on Cannabinoid receptor 2 (Mus musculus, UniProt P47936).
Sequence (P47936 whole entry): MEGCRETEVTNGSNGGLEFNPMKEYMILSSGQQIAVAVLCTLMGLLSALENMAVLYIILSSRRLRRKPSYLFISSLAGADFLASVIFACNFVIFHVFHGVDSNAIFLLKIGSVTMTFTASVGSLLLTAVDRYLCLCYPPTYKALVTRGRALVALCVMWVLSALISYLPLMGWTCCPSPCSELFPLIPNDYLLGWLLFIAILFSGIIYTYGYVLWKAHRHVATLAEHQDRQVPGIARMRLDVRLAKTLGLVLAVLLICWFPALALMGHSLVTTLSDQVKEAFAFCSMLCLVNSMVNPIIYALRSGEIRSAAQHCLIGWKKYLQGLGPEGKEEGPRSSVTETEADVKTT
Please give a number only; it is taken to be in nM.

Here's what some known entries look like.
> print(dat)
                         chemical.structure  observed
1  CC1(C)Oc2cc(C34CC5CC(CC(C(N)=O)(C5)O3)C4)cc(O)c2[C@@H]2C[C@H](O)CC[C@H]21       865
2  CC1(C)Oc2cc(C34CC5CC(CC(CN=[N+]=[N-])(C5)O3)C4)cc(O)c2[C@@H]2C[C@H](CO)CC[C@H]21       0.7
3  CC1(C)Oc2cc(C34CC5CC(CC(C#N)(C5)O3)C4)cc(O)c2[C@@H]2C[C@H](O)CC[C@H]21       1.6
4  CC1(C)Oc2cc(C34CC5CC(CC(CN=C=S)(C5)O3)C4)cc(O)c2[C@@H]2C[C@H](CO)CC[C@H]21       6.6
5  CC1(C)Oc2cc(C34CC5CC(CC(C(N)=O)(C5)O3)C4)cc(O)c2[C@@H]2C[C@H](CO)CC[C@H]21      34.9
6  CC1(C)Oc2cc(C34CC5CC(CC(CN=[N+]=[N-])(C5)O3)C4)cc(O)c2[C@@H]2C[C@H](O)CC[C@H]21       2.7

Kindly consider the entry below.
Item CC1(C)Oc2cc(C34CC5CC(CC(CN=C=S)(C5)O3)C4)cc(O)c2[C@@H]2C[C@H](O)CC[C@H]21 has what recorded Ki?
9.5

====

# STUDY SYSTEM: Cannabinoid receptor 1 (Rattus norvegicus, UniProt P20272)
# Sequence (P20272 whole entry): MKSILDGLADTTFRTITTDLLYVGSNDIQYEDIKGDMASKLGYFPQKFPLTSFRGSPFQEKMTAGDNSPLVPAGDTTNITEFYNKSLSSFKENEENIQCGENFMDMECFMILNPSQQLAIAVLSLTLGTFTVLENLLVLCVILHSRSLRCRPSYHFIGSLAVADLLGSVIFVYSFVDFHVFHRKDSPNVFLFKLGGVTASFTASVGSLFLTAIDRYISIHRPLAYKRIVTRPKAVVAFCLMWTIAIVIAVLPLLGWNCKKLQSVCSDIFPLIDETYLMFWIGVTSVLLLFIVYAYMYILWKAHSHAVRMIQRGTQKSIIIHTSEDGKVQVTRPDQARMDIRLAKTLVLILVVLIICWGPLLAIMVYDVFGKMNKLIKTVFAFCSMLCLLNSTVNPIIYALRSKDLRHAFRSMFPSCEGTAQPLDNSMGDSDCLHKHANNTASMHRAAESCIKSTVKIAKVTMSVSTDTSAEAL
// reported pKi for each item listed
Units for pKi: none; it is -log10 of a concentration expressed in mol/L.

> print(dat)
                         chemical.structure  observed
1  CC1(C)Oc2cc(C34CC5CC(CC(CN=[N+]=[N-])(C5)O3)C4)cc(O)c2[C@@H]2C[C@H](CO)CC[C@H]21      8.70
2  CC1(C)Oc2cc(C34CC5CC(CC(CN=C=S)(C5)O3)C4)cc(O)c2[C@@H]2C[C@H](O)CC[C@H]21      8.32

Item CC1(C)Oc2cc(C34CC5CC(CC(CN=[N+]=[N-])(C5)O3)C4)cc(O)c2[C@@H]2C[C@H](O)CC[C@H]21 with Cannabinoid receptor 1 (Rattus norvegicus, UniProt P20272) - pKi?
8.64

Form field - read-out: pKi; system: Cannabinoid receptor 1 (Rattus norvegicus, UniProt P20272); submitted item: CC1(C)Oc2cc(C34CC5CC(CC(C(N)=O)(C5)O3)C4)cc(O)c2[C@@H]2C[C@H](O)CC[C@H]21
7.54

Kindly state the measured pKi obtained for CC1(C)Oc2cc(C34CC5CC(CC(C(N)=O)(C5)O3)C4)cc(O)c2[C@@H]2C[C@H](CO)CC[C@H]21 with Cannabinoid receptor 1 (Rattus norvegicus, UniProt P20272).
7.97

Requested read-out pKi, target or system Cannabinoid receptor 1 (Rattus norvegicus, UniProt P20272), entry CC1(C)Oc2cc(C34CC5CC(CC(CN=C=S)(C5)O3)C4)cc(O)c2[C@@H]2C[C@H](CO)CC[C@H]21
8.08

Value wanted: pKi (Cannabinoid receptor 1 (Rattus norvegicus, UniProt P20272)) of entry CC1(C)Oc2cc(C34CC5CC(CC(C#N)(C5)O3)C4)cc(O)c2[C@@H]2C[C@H](O)CC[C@H]21
7.58

Hey, just so you know, these numbers are from ChEMBL document CHEMBL4706700.
